tested.system: T1, human SIRPα on cells (human, UniProt P78324 31-504)
T1 construct: Whole entry
experiment.description: flow cytometry;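 also: antibody binding to cells detected with a PE-labelled secondary antibody, given as mean fluorescence intensity relative to background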
property: FOB (fold over background)
Please state the figure in fold over background; there is no need to write the unit.

For SB-8-16 (antibody, V domains shown, IgG) VH: QVQLQESGPGLVKPSETLSLTCAVSGYSISAHYYWGWIRQPPGKGLEWIGSIFHSGHTYYNPSLKSRVTISVDTSKNQFSLKLSSVTAADTAVYYCARAGAMTPAGMDVWGQGTTVTVSS VL: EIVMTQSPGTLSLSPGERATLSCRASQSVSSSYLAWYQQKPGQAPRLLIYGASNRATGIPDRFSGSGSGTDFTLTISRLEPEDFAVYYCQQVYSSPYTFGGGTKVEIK , write its FOB.
1

For SB-1-2 (antibody, V domains shown, IgG) VH: QVQLVESGGGVVQPGRSLRLSCAASGFTFGSFGMNWVRQAPGKGLEWVSAITASGGSTFYADSVKGRFTISRDNSKNTLYLQMNSLRAEDTAVYYCAKDFTEVVGWLGMDVWGQGTTVTVSS VL: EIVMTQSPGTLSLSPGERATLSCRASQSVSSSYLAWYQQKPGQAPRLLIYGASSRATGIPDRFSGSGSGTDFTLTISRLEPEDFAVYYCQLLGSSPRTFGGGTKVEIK , write its FOB.
1

For SB-2 (antibody, V domains shown, IgG; also called SB-2 (p)) VH: QVQLVESGGGVVQPGRSLRLSCAASGFTFSSYGMNWVRQAPGKGLEWVAVIWYDGSNKYYADSVKGRFTISRDNSKNTLYLQMNSLRAEDTAVYYCARDQTAAAAIWGMDVWGQGTTVTVSS VL: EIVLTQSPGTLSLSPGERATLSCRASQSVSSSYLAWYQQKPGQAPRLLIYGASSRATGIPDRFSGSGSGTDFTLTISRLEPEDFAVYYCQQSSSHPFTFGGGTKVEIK , write its FOB.
1
